biological target: Human PD-1 antigen protein (Sino Biological, 10377-H08H) (human, UniProt Q15116 25-167); assay: SPR Biacore 8K, fusion protein captured by anti-human IgG (Fc), human PD-1 as analyte
Sequence (Q15116 25-167 limits assumed): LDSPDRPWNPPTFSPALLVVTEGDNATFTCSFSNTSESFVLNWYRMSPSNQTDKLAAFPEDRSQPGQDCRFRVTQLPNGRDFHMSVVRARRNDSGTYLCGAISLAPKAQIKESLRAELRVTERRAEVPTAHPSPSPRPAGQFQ
Readout Label: koff (s⁻¹)
Write down the numeric answer in s⁻¹ and omit the unit.

binder="A-N88D-M28 (Fc fusion, not shown: IgG1 hinge (C220S) + Fc Knob chain as in A-N88D; IgG1 hinge (C220S) + Fc Hole chain as in A-N88D) chain (part 1 of 2): EVQLVESGGGLVQPGGSLRLSCAASGLTFSSYSMSWYRQAPGKGRELVAIISGSGGITHYADSVKGRFTISRDNAKNTLYLQMRSLRAEDTAVYYCRAVSDWQDYWGQGTQVTVSS chain (part 2 of 2): GGGGSGGGGSGGGGSAPASSSTKKTQLQLEHLLLDLQMILQGISNYKNPKLTRMLTAKFYMPKKATELKHLQCLEEELKPLEEVLQGAQSKNFHLRPRDLISDINVIVLELKGSETTFMCEYADETATIVEFLNRWITFAQSIISTLT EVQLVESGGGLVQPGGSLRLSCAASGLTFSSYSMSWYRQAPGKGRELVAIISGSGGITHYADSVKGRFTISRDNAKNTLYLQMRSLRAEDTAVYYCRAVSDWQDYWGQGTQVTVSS" result_value=0.0198

Query: Please supply the value of reported koff for the item A-N88D-M26 (Fc fusion, not shown: IgG1 hinge (C220S) + Fc Knob chain as in A-N88D; IgG1 hinge (C220S) + Fc Hole chain as in A-N88D) chain (part 1 of 2): EVQLVESGGGLVQPGGSLRLSCAASGLTFSSYSMSWYRQAPGKGRELVAIISGSGGITHYVDSVKGRFTISRDNAKNTLYLQMRSLRAEDTAVYYCRAVSDWEDYWGQGTQVTVSS chain (part 2 of 2): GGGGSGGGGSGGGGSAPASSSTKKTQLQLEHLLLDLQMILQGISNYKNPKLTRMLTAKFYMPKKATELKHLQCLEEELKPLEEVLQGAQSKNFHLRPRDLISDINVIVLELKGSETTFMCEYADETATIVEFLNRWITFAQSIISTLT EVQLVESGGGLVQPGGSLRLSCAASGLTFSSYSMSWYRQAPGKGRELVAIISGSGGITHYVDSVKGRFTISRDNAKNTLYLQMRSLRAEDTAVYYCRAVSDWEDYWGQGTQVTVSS
Result: 0.00948

FYI, the data here is from patent EP4477673A1.
